# experiment.notes: serotonin-gated TRPC4 signal block – cell-based, second counter screen, HEK293 TRPC4/5HT1a, Fluo-4, counter-screen for TRPC4 inhibitor project, confirmation (AID 434978)
# condition.label: Fluo-4 calcium flux, at 10 µM, serotonin added to trigger calcium flux; hits give high values
Activity calls are given as the source filed them.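 Rule for the calls: active = primary screen active whose calcium signal fell more than 3 SD beyond the full-serotonin control mean in both duplicate plates; inactive = the rest.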
measure: inhibition

Use these answered entries as a reference point.
c1csc(-c2nc(NCC3CCCO3)c3ccccc3n2)c1 (stereo unspecified)    28% (active)
CCCCCCCCCCOC(=O)Cn1c(COc2ccccc2)[n+](C)c2ccccc21    inactive
Fc1ccc(-n2cc(CNCCc3cccnc3)c(-c3ccccc3Cl)n2)cc1    inactive
COc1ccc(/C=C2\SC(=S)N(C(Cc3ccccc3)C(=O)O)C2=O)cc1 (stereo unspecified)    32.2% (active)

I have 5 compounds here; please give me inhibition for each one.
1. O=C(CN1CCCCC1)N=Nc1c(O)[nH]c2ccccc12
2. CCOC(=O)C1(CCc2ccccc2)CCN(Cc2ccccn2)CC1
3. N#Cc1c(-c2cccs2)nc(SCc2ccc(Cl)cc2)[nH]c1=O
4. Cc1sc2ncnc(SCC(=O)N(C)C3CCS(=O)(=O)C3)c2c1C (stereo unspecified)
5. C=CCN(CC(O)c1cccc([N+](=O)[O-])c1)C(C)CCc1ccccc1 (stereo unspecified)

1: 33.5% (active); 2: inactive; 3: 11.9% (active); 4: inactive; 5: 25.6% (active)

# batch size: 7; output inhibition per entry
1. COc1cccc(CNC(=O)CCC2CCCN(Cc3cc(Cl)ccc3O)C2)c1 (stereo unspecified)
2. Cc1cc(-c2ccc(C)c(S(=O)(=O)N3CCN(c4ccccn4)CC3)c2)on1
3. CCC(O)C1CCN(Cc2cn(-c3ccc(OC)cc3)nc2-c2cccc(F)c2)CC1 (stereo unspecified)
4. COc1ccc(NC(C)=O)cc1NC(C)C(=O)Nc1cc(C(F)(F)F)ccc1N1CCOCC1 (stereo unspecified)
5. c1ccc(-c2ccccc2OCCOCCN2CCCCC2)cc1
6. COc1ccc(CCN2C(=S)N(C)C(=O)C2CC(=O)Nc2ccc(F)cc2)cc1 (stereo unspecified)
7. COc1cc(NC(=O)C(C)Oc2ccccc2)cc(OC)c1 (stereo unspecified)

1: 29% (active); 2: inactive; 3: inactive; 4: inactive; 5: 33.7% (active); 6: inactive; 7: inactive

----------
# experiment.notes: nonspecific potentiation of DAMGO calcium response – cell-based, HEK293 mu-opioid receptor line, counter-screen for TRPC4 allosteric potentiator project, confirmation (AID 449724);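 note: HEK293 cells carrying mu-opioid receptor only with no TRPC4 channel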
# condition.label: HEK293 mu-opioid receptor cells, Fluo-4 calcium flux, at 10 µM, compound added before EC20 DAMGO stimulus; hits give high values
Activity calls are given as the source filed them.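 How the source made its calls: active means calcium signal rise more than 3 SD above the low-dose agonist control mean, in both duplicate plates and the primary screen; inactive means the rest.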
measure: activation

Below are worked cases with known answers.
CCOC(=O)c1c(C(F)(F)C(F)(F)C(F)(F)C(F)(F)F)n[nH]c1C    inactive
Nc1c2c(nc3ccccc13)N(c1ccccc1)CC2    inactive
CC(=O)C1=C(O)C(=O)N(Cc2ccco2)C1c1ccc2c(c1)OCO2 (stereo not given)    inactive
CN1CCN(Cc2cn[nH]c2-c2ccc(F)cc2F)[C@@H](c2ccccc2)C1    inactive
O=C(Cc1cccc2ccccc12)Nc1ccc(Br)cc1C(=O)O    inactive

Each molecule below has a recorded value; state its activation.
1. CC(=O)OCC1O[C@@H](O[C@@H]2C[C@H]3C(C)(C)[C@H](OC(C)=O)CC[C@]3(C)[C@H]3CC[C@]45C[C@]4(CC[C@H]5[C@@H](C)C[C@@H](O)[C@H](O)C(C)(C)O)[C@@]32C)[C@H](O)[C@@H](O)[C@@H]1O (stereo not given in full)
2. Oc1c(Br)cc(Br)cc1C=Nc1ccc2[nH]ncc2c1
3. c1ccc(-c2nc(N3CCNCC3)nc3ccccc23)cc1

1. inactive
2. inactive
3. inactive
